Test: BSK_3C_SRB: Viability Assessment in the BioMAP Diversity Plus: 3C Assay (AID 2283023);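 also: cells read 24 h after compound dosing; fitted both ways against DMSO so a hit may be signal rise or drop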
Conditions: primary human endothelial cells (HUVEC)
Calls of active or inactive are those of the source. The calls were made as follows: active = hit-call score of the fitted dose curve at least 0.9, where 1 is the maximum; inactive = score below 0.9.
Valid outcomes are listed here; reply with one: active, inactive

Incoming: Short answer needed: outcome of this test for ClC(Cl)=C(Cl)C(Cl)=C(Cl)Cl ?
Outgoing: active

Incoming: Any idea what this test logged for O=S(=O)(c1ccc(Cl)cc1)c1ccc(Cl)cc1 ?
Outgoing: inactive

Incoming: Recorded call for CCC(C)(C)c1ccc(O)c(C(C)(C)CC)c1 ?
Outgoing: active

Incoming: Could you please tell me the result logged for Oc1c(I)cc(I)cc1I in this assay?
Outgoing: active

Incoming: Tell me the recorded outcome of this test for C=C(C)C(=O)[O][Sn]([CH2]CCC)([CH2]CCC)[CH2]CCC .
Outgoing: active

Incoming: Please let me know the test result on file for Oc1ccc(-c2ccccc2)cc1 .
Outgoing: inactive

Incoming: In this assay, the call recorded for C[C@]12CCC(=O)C[C@@H]1CC[C@@H]1[C@@H]2CC[C@]2(C)[C@@H](O)CC[C@@H]12 was what?
Outgoing: active

Incoming: Record request — test call for CCCCC(CC)CO[N+](=O)[O-] (stereo unspecified)
Outgoing: active

Incoming: Per the records of this test, what outcome belongs to NC(=O)O ?
Outgoing: inactive

Incoming: What is the recorded call for this compound in the test? O=[N+]([O-])c1ccc(O)c([N+](=O)[O-])c1
Outgoing: inactive

Incoming: Fill in: this test's call for O=c1[nH]c(=O)[nH]c(=O)[nH]1 is ___
Outgoing: inactive

Incoming: Which outcome did this test record for the compound CC(C)c1ccc(CO)cc1 ?
Outgoing: inactive

Incoming: Please share the test call associated with Nc1ncc([N+](=O)[O-])s1 .
Outgoing: inactive

Incoming: Which outcome did this test record for the compound O=[N+]([O-])c1ccc2c3c(cccc13)CC2 ?
Outgoing: active

Incoming: Hi, sorry to bother you, what did the test record for ClC1=C(Cl)[C@]2(Cl)[C@H]3[C@H]([C@H]4C=C[C@H]3C4)[C@@]1(Cl)C2(Cl)Cl ?
Outgoing: active

Incoming: So what was the verdict on CCC(=O)C(CC(C)N(C)C)(c1ccccc1)c1ccccc1 (stereo unspecified) in this test?
Outgoing: inactive

Incoming: Test call for this compound, please: CC1(C)Cc2cccc(O)c2O1
Outgoing: inactive

Incoming: Recorded call for CCN1CCC2(CC1)COc1cc3c(cc12)N(C(=O)c1ccc(-c2ccc(-c4nnc(C)o4)cc2C)cc1)CC3 ?
Outgoing: active

Incoming: // param item: CCOP(=S)(OCC)SCSP(=S)(OCC)OCC ; yields the recorded call
Outgoing: inactive

Incoming: Could you please tell me the result logged for CCOC(=O)/C=C(C)/C=C/C[C@@H](C)CCCC(C)C in this assay?
Outgoing: active

Incoming: Status in this test for CC(C)(C)CC(C)(C)c1ccc(O)cc1 ?
Outgoing: active

Incoming: Per the assay record, what outcome was assigned to O=C1C2(Cl)C3(Cl)C4(Cl)C(Cl)(Cl)C5(Cl)C3(Cl)C1(Cl)C5(Cl)C24Cl (stereo unspecified) ?
Outgoing: active

Incoming: For this compound, state the assay outcome: Cn1sc(Cl)cc1=O
Outgoing: inactive

Incoming: What did this assay record as the result for O=C(O)CCC(F)(C(F)(F)F)C(F)(F)F ?
Outgoing: inactive

Incoming: Which outcome did this test record for the compound CCCCCCCCC(=O)NCc1ccc(O)c(OC)c1 ?
Outgoing: inactive

Incoming: Write down the call the test reported for this compound. Item: COc1cc(-c2ccc(N)c(OC)c2)ccc1N
Outgoing: inactive

Incoming: I'd appreciate the recorded outcome for ClCC(Cl)CCl from this test.
Outgoing: inactive

Incoming: Entry C[C@@H]1C[C@@H]([C@H](O)CC2CC(=O)NC(=O)C2)C(=O)[C@@H](C)C1 : call = ?
Outgoing: active

Incoming: Please let me know the test result on file for CCNc1nc(NC(C)(C)C)nc(SC)n1 .
Outgoing: inactive

Incoming: Please share the test call associated with C=CC(=O)OCCCCCC(C)C .
Outgoing: inactive

Incoming: GET /call?item= O=C(OC1CCCCC1)c1ccccc1C(=O)OC1CCCCC1 returns the recorded outcome of this test.
Outgoing: active

Incoming: Please state the recorded outcome for this compound: Oc1cccc2cccnc12
Outgoing: inactive

Incoming: I would be grateful if you could indicate the recorded call for CC(=O)C(Cl)C(=O)N(C)C (stereo unspecified) .
Outgoing: inactive

Incoming: Which result was noted for this compound in the test: COC(=O)Cc1ccccc1
Outgoing: inactive

Incoming: Give the logged outcome of this assay for the following compound: COP(=S)(OC)Oc1cc(Cl)c(Cl)cc1Cl
Outgoing: inactive

Incoming: GET /call?item= BrCCBr returns the recorded outcome of this test.
Outgoing: inactive

###

Read-out: UDP glucuronosyltransferase (UGT1A6), UGT1A6 (gene 54578)
Assay: LTEA_HepaRG_UGT1A6: Life Technologies and Expression Analysis (LTEA) Assay for UDP glucuronosyltransferase (UGT1A6) using HepaRG (AID 2283539)
Settings: mRNA level, 48 h; actives raise or lower the signal
Calls of active or inactive are those of the source. The calls were made as follows: active = hit-call score of the fitted dose curve at least 0.9, where 1 is the maximum; inactive = score below 0.9.
Tick one outcome: active, inactive

Incoming: Field: outcome | Entry: CCC(=O)C(CC(C)N(C)C)(c1ccccc1)c1ccccc1 (centres undefined)
Outgoing: inactive

Incoming: What outcome does the record of this test show for CC12CC1(C)C(=O)N(c1cc(Cl)cc(Cl)c1)C2=O (centres undefined) ?
Outgoing: inactive

Incoming: Tell me the assay call for O=C1C2(Cl)C3(Cl)C4(Cl)C(Cl)(Cl)C5(Cl)C3(Cl)C1(Cl)C5(Cl)C24Cl (centres undefined) please.
Outgoing: active

Incoming: What was the test verdict on CC(C)(OO)c1ccccc1 ?
Outgoing: inactive

###

Test: ATG_ISRE_CIS: Attagene CIS-FACTORIAL HepG2 Assay for human Interferon Regulatory Factor 1 (IRF1) binding to an Interferon-Stimulated Response Element (ISRE) (AID 2282948)
Details: HepG2 ISRE cis-reporter (Attagene), mRNA transcription readout; actives raise or lower the signal
Activity calls are given as the source filed them. Rule for the calls: active = hit-call score of the fitted dose curve at least 0.9, where 1 is the maximum; inactive = score below 0.9.
Result category, one only: active, inactive

Incoming: Called result for NC(=S)Nc1ccccc1
Outgoing: inactive

Incoming: Lab log entry: CCOP(=S)(OCC)SCCS(=O)(=O)CC — outcome as called in the assay?
Outgoing: inactive

Incoming: I'd appreciate the recorded outcome for CCNc1nc(NC(C)(C)C)nc(SC)n1 from this test.
Outgoing: active

Incoming: Tell me the recorded outcome of this test for CCOP(=S)(OCC)Oc1ccc(S(C)=O)cc1 (stereo not drawn) .
Outgoing: inactive

Incoming: Tell me the recorded outcome of this test for ClCCBr .
Outgoing: inactive

Incoming: What classification did O=C(Cl)c1ccc(Cl)cc1 end up with in this test?
Outgoing: inactive

Incoming: What is the recorded call for this molecule in the test? N#Cc1ccccn1
Outgoing: inactive

Incoming: Fill in: this test's call for Nc1ccc(-c2ccc(N)c(Cl)c2)cc1Cl is ___
Outgoing: inactive

Incoming: Look up the recorded call for Cc1cc(Cl)ccc1O[C@H](C)C(=O)O in this test.
Outgoing: inactive

Incoming: So what was the verdict on CCOP(=S)(OCC)SCSP(=S)(OCC)OCC in this test?
Outgoing: inactive

Incoming: Per the assay record, what outcome was assigned to COc1ccccc1OC ?
Outgoing: inactive

Incoming: I would be grateful if you could indicate the recorded call for BrCCBr .
Outgoing: inactive

Incoming: Given Nc1cccc2ccccc12 , state the outcome it received in this test.
Outgoing: inactive

Incoming: Could you check what this test reported for CCSC(C)CC1CC(=O)C(C(CC)=NOC/C=C/Cl)=C(O)C1 (stereo not drawn) ?
Outgoing: inactive

Incoming: Can you look up the reported call for COc1cccc(C=O)c1 for me?
Outgoing: inactive

Incoming: Query: recorded result category for CCOP(OCC)OCC in this test
Outgoing: inactive

Incoming: So what was the verdict on CC(C)c1ccc(CO)cc1 in this test?
Outgoing: inactive

Incoming: How did this test come out for C=C(C)C#N ?
Outgoing: inactive

Incoming: Test call, this molecule: CC(=[OH+])/C=C(/C)[O-].CC(=[OH+])/C=C(/C)[O-].CC(=[OH+])/C=C(/C)[O-].[Fe]
Outgoing: inactive

Incoming: What outcome does the record of this test show for CCc1ccccc1N ?
Outgoing: inactive

Incoming: For CC1(C)Cc2cccc(O)c2O1 , which call appears in the assay record?
Outgoing: inactive

Incoming: Each molecule tested received a call. Report the one for COc1ccc(OC)c(C=O)c1 .
Outgoing: inactive

Incoming: Short answer needed: outcome of this test for CC(C)(C)c1cc(O)ccc1O ?
Outgoing: inactive

Incoming: Could you kindly confirm the outcome this assay logged for C=CC(=O)OCCCCCC(C)C ?
Outgoing: inactive

Incoming: # fetch the recorded call for O=S(=O)(c1ccc(Cl)cc1)c1ccc(Cl)cc1 here
Outgoing: inactive

Incoming: Could you kindly confirm the outcome this assay logged for COC[C@H](C)N(C(=O)CCl)c1c(C)csc1C ?
Outgoing: inactive

Incoming: Per the records of this test, what outcome belongs to CC(C#N)CCC#N (stereo not drawn) ?
Outgoing: inactive

Incoming: Give the logged outcome of this assay for the following molecule: O=C1CCCN1
Outgoing: inactive

Incoming: Check the results log: what was the call for O=c1[nH]c(=O)[nH]c(=O)[nH]1 ?
Outgoing: inactive

Incoming: Short answer needed: outcome of this test for CC(Br)C(=O)O (stereo not drawn) ?
Outgoing: inactive

Incoming: Please indicate how the test categorized CC(C)(OO)c1ccccc1 .
Outgoing: inactive

Incoming: Tell me the assay call for Clc1nc(Cl)nc(Cl)n1 please.
Outgoing: inactive

Incoming: Recorded call for C[C@H]1O[C@@H](O[C@H]2[C@@H](O)C[C@H](O[C@H]3[C@@H](O)C[C@H](O[C@H]4CC[C@@]5(C)[C@H](CC[C@@H]6[C@@H]5CC[C@]5(C)[C@@H](C7=CC(=O)OC7)CC[C@]65O)C4)O[C@@H]3C)O[C@@H]2C)C[C@H](O)[C@@H]1O ?
Outgoing: active

Incoming: Recorded call for COS(=O)(=O)c1ccc(C)cc1 ?
Outgoing: inactive

Incoming: Look up the recorded call for Fc1ccc(C2(Cn3cncn3)OC2c2ccccc2Cl)cc1 (stereo not drawn) in this test.
Outgoing: inactive

Incoming: Tell me the assay call for CC(C)c1cccc(C(C)C)c1O please.
Outgoing: inactive

Incoming: So what was the verdict on CC(C)C1CCC(Cc2ccc(Cl)cc2)C1(O)Cn1cncn1 (stereo not drawn) in this test?
Outgoing: inactive

Incoming: I'd appreciate the recorded outcome for ClC1=C(Cl)[C@]2(Cl)[C@@H]3[C@@H](Cl)[C@@H](Cl)C[C@@H]3[C@@]1(Cl)C2(Cl)Cl from this test.
Outgoing: inactive

Incoming: # fetch the recorded call for CCOC(=O)/C=C(C)/C=C/C[C@@H](C)CCCC(C)C here
Outgoing: inactive

Incoming: Name the outcome recorded for O=C(O)C(Cl)(Cl)Cl in the assay.
Outgoing: inactive

Incoming: Query: recorded result category for CCCCC(CC)CO[N+](=O)[O-] (stereo not drawn) in this test
Outgoing: inactive

Incoming: Which outcome did this test record for the molecule CCCCCCCCCl ?
Outgoing: inactive

Incoming: What did this assay record as the result for CN(CCCC(=O)c1cccnc1)N=O ?
Outgoing: inactive

Incoming: Per the assay record, what outcome was assigned to ClC(Cl)=C(Cl)C(Cl)=C(Cl)Cl ?
Outgoing: active

Incoming: Could you kindly confirm the outcome this assay logged for C[C@]12CC[C@H](O)CC1=CC[C@@H]1[C@@H]2CC[C@]2(C)C(=O)CC[C@@H]12 ?
Outgoing: inactive

Incoming: Tell me the recorded outcome of this test for Nc1ncc([N+](=O)[O-])s1 .
Outgoing: inactive

Incoming: Test call for this molecule, please: Clc1ccc(C2(Cn3cncn3)CC(Br)CO2)c(Cl)c1 (stereo not drawn)
Outgoing: inactive

Incoming: Kindly provide the recorded test outcome for the following molecule: CCCCOCCOC(C)=O
Outgoing: inactive

Incoming: Test call for this molecule, please: CNC(=O)O/N=C/C(C)(C)S(C)=O (stereo not drawn)
Outgoing: inactive

Incoming: # lookup: test call for O=[N+]([O-])c1c(Cl)c(Cl)cc(Cl)c1Cl
Outgoing: inactive

Incoming: // outcome(item) with item = C[C@H]1CCCC(=O)CCC/C=C/c2cc(O)cc(O)c2C(=O)O1
Outgoing: active

Incoming: Which outcome did this test record for the molecule COc1cc(OC)nc(NC(=O)NS(=O)(=O)c2ncccc2C(=O)N(C)C)n1 ?
Outgoing: inactive

Incoming: State the result this test recorded for Cl/C=C/Cl .
Outgoing: inactive

Incoming: Please indicate how the test categorized COc1ccc(C=O)cc1OC .
Outgoing: inactive

Incoming: Outcome logged for CC(C)OC(=O)Nc1ccccc1 in this assay:
Outgoing: inactive

Incoming: So what was the verdict on CCOC(=O)CP(=O)(OCC)OCC in this test?
Outgoing: inactive

Incoming: Please state the recorded outcome for this molecule: O=C(NCO)NCO
Outgoing: inactive

Incoming: Please state the recorded outcome for this molecule: CCC[CH2][Sn]([Cl])([Cl])[Cl]
Outgoing: inactive

Measured values drawn from PubChem BioAssay (EPA / NIEHS) for this set.
